- ASSAYED SYSTEM: LHRH receptor (LHRH binding sites) on EFO-27 human ovarian cancer cells (human)
- METHOD: competition with [125I-Tyr8]BRU-2477, EFO-27 cells
Non-standard residues stand in square brackets, D forms with d. Bpa = N[C@@H](Cc1ccc(C(=O)c2ccccc2)cc1)C(=O)O; d2Nal = N[C@H](Cc1ccc2ccccc2c1)C(=O)O; DO3A10CM = not defined here; Ampt4 = not defined here; azaGly = NNC(=O)O
MEASUREMENT LABEL: pEC50
Bear in mind: pEC50 is minus log10 of a mol/L concentration; give just that figure.

Record XRWSHXWXP (N-terminal DO3A10CM; Dnal2 at 1; Darg at 6; Bpa4 at 8; C-terminal Da15o3pt at 10) [BRU-2968] . Reported pEC50: 6.62

Briefly, pEC50 measured for XRWSHXWXP (Sar at 1; Darg at 6; Bpa4 at 8; C-terminal Da15o3pt at 10) [BRU-3007] : 6.66

Reported pEC50 of HRWSHXWXPX (N-terminal DO3A10CM; Darg at 6; Bpa4 at 8; azaGly-NH2 at 10) [BRU-3025] : 6.33

Memo: XRWSHXWXPX (N-terminal DO3A10CM; Datdc2 at 1; Darg at 6; Bpa4 at 8; azaGly-NH2 at 10) [BRU-3063] , reported pEC50: 6.33

Value of measured pEC50 for the entry XRWXHXWXPX (N-terminal DO3A10CM; Dnal2 at 1; Dap at 4; Darg at 6; Bpa4 at 8; azaGly-NH2 at 10) [BRU-2955] : 6.39

So for XRWXHXWXPX (N-terminal DO3A10CM; Dnal2 at 1; Amfe4 at 4; Darg at 6; Bpa4 at 8; azaGly-NH2 at 10) [BRU-3115] , the logged pEC50 turned out to be 6.82

// XRWSHXWXPX (N-terminal DO3A10CM; Dnal2 at 1; Darg at 6; Bpa4 at 8; azaGly-NH2 at 10) [BRU-2813] : pEC50 value = 6.48

Form field pEC50, entry XRWSHXWXPX (N-terminal DO3A10CM; Ampha4 at 1; Darg at 6; Bpa4 at 8; azaGly-NH2 at 10) [BRU-3094] : 6.46

// pEC50 value for XXWSHXWXPX (N-terminal DO3A10CM; Dnal2 at 1; Darg at 2; Darg at 6; Bpa4 at 8; azaGly-NH2 at 10) [BRU-3049] : 6.44

pEC50 reported for this binder XHWSHXWXPX (N-terminal DO3A10CM; Damfe4 at 1; Darg at 6; Bpa4 at 8; azaGly-NH2 at 10) [BRU-2757] : 6.59

Summary for this binder, XRWSHXWXP (Sar at 1; Darg at 6; Bpa4 at 8; C-terminal Ampip2 linker carrying DO3A10CM) [BRU-3102] : pEC50 is 6.70

pEC50 reported for this binder XRWSHXWXP (Dnal2 at 1; Darg at 6; Bpa4 at 8; C-terminal Dabt14 linker carrying DO3A10CM) [BRU-3042] : 6.70

binder XRWSHXWXXX (N-terminal DO3A10CM; Dnal2 at 1; Darg at 6; Bpa4 at 8; Aze at 9; azaGly-NH2 at 10) [BRU-2993] , pEC50 observed: 6.42

# binder DO3A10CM-[d2Nal]RWSH[dR]W[Bpa][Ampt4][azaGly]-NH2 (reading uncertain; also: printed as DO3A10CM-Dnal2-Arg-Trp-Ser-His-Darg-Trp-Bpa4-Ampt4-azaGly-NH2) [BRU-2995] ; its pEC50 = 6.39

Measured pEC50 of XXRWSHXWXPX (N-terminal DO3A10CM; Dap linker before 1; Dnal2 at 1; Darg at 6; Bpa4 at 8; azaGly-NH2 at 10) [BRU-3096] : 6.43
